B1: F1*; the commonest letter at each place (parent)
chain: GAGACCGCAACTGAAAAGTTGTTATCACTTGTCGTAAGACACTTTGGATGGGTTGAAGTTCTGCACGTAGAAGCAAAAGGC

# Variants of: B1
# TEST PROTOCOL: fraction ligated after 30 min (ligated reads / total reads); higher = more ligase activity
# CONDITIONS USED: with F1*sub RNA substrate (template-directed ligation), 42 °C
Assign Condition met whenever fraction ligated does not fall below 0.8; assign Condition not met whenever it does.

Previously resolved entries follow.
A39T G47A	Condition not met
T29A C40A	Condition met
T35A A36C	Condition met
C26T T43A	Condition met

Query: Decide: is the reported value of fraction ligated for T30A G38T equal to or greater than 0.8?
Reply: Condition met
